- system: murine CB1R (Mus musculus, UniProt P47746)
- Sequence (P47746 whole entry): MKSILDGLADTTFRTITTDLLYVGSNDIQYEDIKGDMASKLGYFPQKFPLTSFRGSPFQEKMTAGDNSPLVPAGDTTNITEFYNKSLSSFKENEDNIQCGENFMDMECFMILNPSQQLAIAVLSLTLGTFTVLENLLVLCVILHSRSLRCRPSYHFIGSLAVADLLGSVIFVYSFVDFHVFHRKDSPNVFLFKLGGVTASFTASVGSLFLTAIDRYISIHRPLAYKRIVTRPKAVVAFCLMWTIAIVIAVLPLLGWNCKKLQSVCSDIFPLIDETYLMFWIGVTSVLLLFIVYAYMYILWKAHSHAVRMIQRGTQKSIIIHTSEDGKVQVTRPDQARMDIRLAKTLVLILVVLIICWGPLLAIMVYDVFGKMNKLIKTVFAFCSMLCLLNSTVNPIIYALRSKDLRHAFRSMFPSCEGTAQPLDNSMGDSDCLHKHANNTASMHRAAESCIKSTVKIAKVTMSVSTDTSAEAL
- test-name: GloSensor cAMP functional assay in CB1R-transfected HEK293T/17 cells
- measurement-setup: HEK293T/17 cells transfected with murine CB1R, forskolin 1 µM, GloSensor luminescence; read-out: EC50, increase in cAMP formation (inverse agonism)
reported-endpoint: EC50 (µM)
Give bare numbers, in µM.

**Q:** Entry CSc1ccc(C2C(N3C(=O)c4ccccc4C3=O)C(=O)N2c2ccc(SC)cc2)cc1 (stereo not shown) : reported EC50 = ?
**A:** 249

* * *

- test-name: Brain/plasma ratio (B/P)
- Assay type: in vivo
- measurement-setup: mouse, brain, intraperitoneal; mice, 10 mg·kg−1, i.p. or oral, DMSO/Tween 80 aqueous solution, at maximal absorption time point
Please go through the items and note down their Kp.

{"compound": "Cc1c(C(=O)NN2CCCCC2)nn(-c2ccc(Cl)cc2Cl)c1-c1ccc(Cl)cc1 [Rimonabant, reference compound]", "reported-endpoint": "Kp", "assay-value": "> 1"}

Consider the record given below.
**Q:** What Kp value was documented for this compound, CSc1ccc(C2C(N3C(=O)c4ccccc4C3=O)C(=O)N2c2ccc(SC)cc2)cc1 (centres unmarked) ?
**A:** 0.3 to 0.5
